B1: library; a variant is named by its letters at N, in order (parent)
chain: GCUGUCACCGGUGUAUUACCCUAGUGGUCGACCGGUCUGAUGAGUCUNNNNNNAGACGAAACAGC

- Variants of: B1
- assay explanation: normalized RNA/DNA level with ligand (relative to sTRSVctl = 100) (log10 (% of sTRSVctl)); ligand: hypoxanthine (xanthine aptamer); higher = less ribozyme self-cleavage, higher mRNA level
- assay setup: ligand concentration (+) RNA-Seq: 5 mM, HEK293T, reporter: mCherry (pCS4076), ligand present: yes
readout label: normalized RNA/DNA level with ligand (log10)

>  <change>
CCAAUA

>  <quantitative readout>
1.9

$$$$
>  <change>
UUGCGC

>  <quantitative readout>
1.94

$$$$
>  <change>
UAAUCA

>  <quantitative readout>
1.96

$$$$
>  <change>
AACCCA

>  <quantitative readout>
1.92

$$$$
>  <change>
GAGUCU

>  <quantitative readout>
1.96

$$$$
>  <change>
UAUGUA

>  <quantitative readout>
1.91

$$$$
>  <change>
GUAAAC

>  <quantitative readout>
1.95

$$$$
>  <change>
AUUGAU

>  <quantitative readout>
1.92

$$$$
>  <change>
CCAGUG

>  <quantitative readout>
1.93

$$$$
>  <change>
GCUGGA

>  <quantitative readout>
1.9

$$$$
>  <change>
CAGGGU

>  <quantitative readout>
1.88

$$$$
>  <change>
AGUAUC

>  <quantitative readout>
1.96

$$$$
>  <change>
AUAGUU

>  <quantitative readout>
1.9

$$$$
>  <change>
GUUUUG

>  <quantitative readout>
1.9

$$$$
>  <change>
AGAUUG

>  <quantitative readout>
1.88

$$$$
>  <change>
ACACGC

>  <quantitative readout>
1.94

$$$$
>  <change>
GAUCAA

>  <quantitative readout>
1.9

$$$$
>  <change>
CAUAAA

>  <quantitative readout>
1.89

$$$$
>  <change>
UUAUGC

>  <quantitative readout>
1.94

$$$$
>  <change>
AUUCGC

>  <quantitative readout>
1.96

$$$$
>  <change>
GUACAG

>  <quantitative readout>
1.87

$$$$
>  <change>
CGGACG

>  <quantitative readout>
2.01

$$$$
>  <change>
CAAUUC

>  <quantitative readout>
1.93

$$$$
>  <change>
GUGGGC

>  <quantitative readout>
1.81

$$$$
>  <change>
GCUGCC

>  <quantitative readout>
1.96

$$$$
>  <change>
GAUGAU

>  <quantitative readout>
1.91

$$$$
>  <change>
GAAACG

>  <quantitative readout>
1.88

$$$$
>  <change>
UCGGGU

>  <quantitative readout>
1.81

$$$$
>  <change>
AAAGCC

>  <quantitative readout>
1.94

$$$$
>  <change>
UGAUGA

>  <quantitative readout>
1.91

$$$$
>  <change>
AUAAGG

>  <quantitative readout>
1.8

$$$$
>  <change>
GCGCCA

>  <quantitative readout>
1.97

$$$$
>  <change>
CUGCCG

>  <quantitative readout>
1.96

$$$$
>  <change>
CACCGC

>  <quantitative readout>
2.02

$$$$
>  <change>
GUAAGA

>  <quantitative readout>
1.89

$$$$
>  <change>
CACUAA

>  <quantitative readout>
1.86

$$$$
>  <change>
UGGUGA

>  <quantitative readout>
1.88

$$$$
>  <change>
CGAGUA

>  <quantitative readout>
1.93

$$$$
>  <change>
CACAUG

>  <quantitative readout>
1.91

$$$$
>  <change>
CAACGU

>  <quantitative readout>
1.96

$$$$
>  <change>
CGCCCA

>  <quantitative readout>
1.96

$$$$
>  <change>
UCAACG

>  <quantitative readout>
1.92

$$$$
>  <change>
GAUCUU

>  <quantitative readout>
1.96

$$$$
>  <change>
UAUGGU

>  <quantitative readout>
1.88

$$$$
